For each record, write down the corresponding GI50.
Test system: CAKI-1 renal
Experiment: NCI tumour cell line growth inhibition, 48 h

A selection of reference data follows.
>  <SMILES TEXT>
O=C(O)c1cn(C2CC2)c2cc(N3CCN(C(=O)Nc4nc(-c5ccc(Cl)cc5)cs4)CC3)c(F)cc2c1=O

>  <RESULT>
3.81 µM

$$$$
>  <SMILES TEXT>
N=C(N)c1ccc(-c2ccc(-c3ccco3)o2)cc1F

>  <RESULT>
1.78 µM

$$$$
>  <SMILES TEXT>
N#CC(C#N)=Cc1ccc(-c2ccc(-c3nc4ccccc4s3)cc2)s1

>  <RESULT>
20.9 µM

$$$$
>  <SMILES TEXT>
CC(=O)O[C@@H]1CC(=O)O[C@@H]2C[C@@H](CC/C(Cl)=C/C/C=C\1C)O[C@@H]2CO

>  <RESULT>
> 25 µM

$$$$

Now consider the entry below.
Value of GI50 reported for the compound CSc1ccc2c(c1)C(=O)c1c-2n(CCCN=[N+]=[N-])c(=O)c2cc([N+](=O)[O-])ccc12 is 2.33 µM

----------
System: TK-10 renal
Assay: NCI tumour cell line growth inhibition, 48 h
For each record, write down the corresponding TGI.

>  <COMPOUND>
O=C(Nc1cc(Cl)cc(Cl)c1)c1ccc(NC2=C(Cl)C(=O)N(Cc3ccccc3)C2=O)cc1

>  <RESULT>
51.5 µM

$$$$

Below are some compounds; for each one, tell me its TGI.
1. Clc1ccc(CCn2cncn2)c(Cl)c1
2. CCC1CCN=C(Cn2cc(C)c(=O)[nH]c2=O)N1 (stereo unspecified)

A.
["> 100 µM", "> 100 µM"]

Below are some compounds; for each one, tell me its TGI.
1. COC(=O)[C@]1(C)CCC[C@]2(C)C3CC4OOC3(C=C4C(C)C)CCC21 (stereo partly specified)
2. COc1ccc2cc(C(=O)/C=C/c3ccccc3OC)ccc2c1
3. COc1cc2c3c(n(CCCN4CCOCC4)c(=O)c2cc1OC)-c1cc2c(cc1C3=O)OCO2

A.
1: 82.1 µM; 2: > 40.1 µM; 3: > 94.3 µM

----------
For each record, write down the corresponding TGI.
System: OVCAR-8 ovarian
Assay: NCI tumour cell line growth inhibition, 48 h
Answers are plain numbers, in µM.

>  <SMILES TEXT>
N=c1c2ccccc2nc2oc3ccc(Cl)cc3n12

>  <RESULT UNITS>
µM

>  <QUANTITATIVE RESULT>
69.1

$$$$
>  <SMILES TEXT>
C=C1C(=O)O[C@H]2[C@H]3O[C@@H](C[C@@H]12)[C@](C)(O)CCCC(C)=CCC[C@H]3C

>  <RESULT UNITS>
µM

>  <QUANTITATIVE RESULT>
21

$$$$
>  <SMILES TEXT>
O=C1c2cccnc2-c2nccc3ccnc1c23

>  <RESULT UNITS>
µM

>  <QUANTITATIVE RESULT>
2.17

$$$$

Value of TGI reported for the molecule COC(=O)/C(Br)=C/c1c[nH]c2ccc(Br)cc12 is 34.3

----------
System: SK-MEL-2 melanoma
Assay: NCI tumour cell line growth inhibition, 48 h
MEASUREMENT TYPE: TGI (µM)
Answers are plain numbers, in µM.

>  <COMPOUND>
[O-][n+]1onc2c1-c1nonc1CC2

>  <MEASUREMENT TYPE>
TGI

>  <QUANTITATIVE RESULT>
65.2

$$$$
>  <COMPOUND>
COc1ccc2cc(C(=O)/C=C/c3ccccc3OC)ccc2c1

>  <MEASUREMENT TYPE>
TGI

>  <QUANTITATIVE RESULT>
35.2

$$$$
>  <COMPOUND>
CCNCCNc1cc(C2CCCC2)c(C#N)c2nc3ccccc3n12

>  <MEASUREMENT TYPE>
TGI

>  <QUANTITATIVE RESULT>
16.1

$$$$

Below are some compounds; for each one, tell me its TGI.
1. O=C(Nc1cccc2ccccc12)c1cc2ccccc2cc1O
2. Cn1cc(C2=C(c3cccc(NCC(O)CO)c3)C(=O)NC2=O)c2cc(Cl)ccc21 (configuration not stated)

A.
1. 4.69
2. 10
